# targetOrTestSystem: sphingosine-1-phosphate receptor 1 (S1PR1) (Homo sapiens)
# Construct: full-length, C-terminal TEV fusion
# Sequence (P21453 whole entry, the tested form may be a part): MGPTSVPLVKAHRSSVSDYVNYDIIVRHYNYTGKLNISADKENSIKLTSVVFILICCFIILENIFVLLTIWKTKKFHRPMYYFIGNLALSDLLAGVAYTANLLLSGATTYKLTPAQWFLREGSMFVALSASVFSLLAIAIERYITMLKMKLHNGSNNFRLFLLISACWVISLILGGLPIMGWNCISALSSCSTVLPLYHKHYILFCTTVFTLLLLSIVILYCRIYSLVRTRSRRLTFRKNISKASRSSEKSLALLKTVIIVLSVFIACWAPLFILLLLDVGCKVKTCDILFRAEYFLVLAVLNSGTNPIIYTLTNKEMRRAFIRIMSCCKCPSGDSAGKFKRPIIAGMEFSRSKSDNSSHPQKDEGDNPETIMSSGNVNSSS
# Sequence (P32121 whole entry partner, the tested form may be a part): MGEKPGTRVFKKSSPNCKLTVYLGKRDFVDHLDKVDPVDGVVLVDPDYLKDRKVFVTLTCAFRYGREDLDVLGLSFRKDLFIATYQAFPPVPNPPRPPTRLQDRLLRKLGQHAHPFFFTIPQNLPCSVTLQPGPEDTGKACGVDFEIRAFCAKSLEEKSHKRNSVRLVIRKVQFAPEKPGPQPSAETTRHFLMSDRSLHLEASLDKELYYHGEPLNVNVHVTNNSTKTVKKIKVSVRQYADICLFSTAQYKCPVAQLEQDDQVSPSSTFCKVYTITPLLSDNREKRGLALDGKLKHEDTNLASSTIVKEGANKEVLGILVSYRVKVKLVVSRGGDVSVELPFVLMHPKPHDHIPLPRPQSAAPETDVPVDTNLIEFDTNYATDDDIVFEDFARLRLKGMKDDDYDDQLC
# assayName: LinkLight S1PR1/β-arrestin interaction assay in HEK293 cells
endpointName: EC50 (nM)
# unit: nM | format: bare number

Item under review: `CCCCCCCCCCCCC/C=C/[C@@H](O)[C@@H](N)COP(=O)(O)O` . Reported EC50? 129
